Target: T1, MutS (wild type) (Thermus aquaticus (printed as T. …, UniProt Q56215 1-811))
T1 sequence: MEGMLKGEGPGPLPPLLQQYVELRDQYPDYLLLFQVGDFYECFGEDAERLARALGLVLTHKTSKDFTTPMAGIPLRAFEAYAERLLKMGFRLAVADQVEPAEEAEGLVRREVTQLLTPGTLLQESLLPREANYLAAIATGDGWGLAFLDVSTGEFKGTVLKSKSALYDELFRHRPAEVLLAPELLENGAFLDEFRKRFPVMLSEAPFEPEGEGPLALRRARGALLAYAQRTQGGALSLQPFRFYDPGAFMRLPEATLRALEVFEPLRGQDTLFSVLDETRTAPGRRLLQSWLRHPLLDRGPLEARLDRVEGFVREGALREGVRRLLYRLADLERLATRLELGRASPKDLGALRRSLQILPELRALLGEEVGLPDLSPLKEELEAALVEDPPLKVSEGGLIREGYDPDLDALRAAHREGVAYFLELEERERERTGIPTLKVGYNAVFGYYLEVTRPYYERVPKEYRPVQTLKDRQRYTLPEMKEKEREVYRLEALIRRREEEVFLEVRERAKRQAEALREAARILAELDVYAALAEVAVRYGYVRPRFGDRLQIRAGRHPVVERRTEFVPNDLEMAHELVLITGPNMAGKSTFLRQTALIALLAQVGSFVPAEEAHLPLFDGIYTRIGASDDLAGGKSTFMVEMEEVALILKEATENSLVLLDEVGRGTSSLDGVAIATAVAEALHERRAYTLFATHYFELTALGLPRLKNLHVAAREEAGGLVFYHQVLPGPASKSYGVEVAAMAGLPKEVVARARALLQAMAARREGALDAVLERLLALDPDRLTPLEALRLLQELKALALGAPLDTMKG
Assay: fluorescence anisotropy, equilibrium
endpoint_label: pKd
Give bare numbers, as −log10 of the molar value.

Recorded pKd for DNA(+T)TAMRA (dsDNA, 3' amino linker) DNA 1: ATGTGAATCAGTATGGTATATATCTGCTGAAGGAAAT DNA 2: ATTTCCTTCAGCAGATATTACCATACTGATTCACAT , please? 7.89
